B1: library; a variant is named by its letters at N, in order (parent)
chain: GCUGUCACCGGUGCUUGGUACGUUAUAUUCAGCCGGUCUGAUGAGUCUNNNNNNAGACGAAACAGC

variants of: B1; assay: normalized RNA/DNA level with ligand (relative to sTRSVctl = 100) (log10 (% of sTRSVctl)); HEK293T overexpressing SLC46A1; ligand concentration (+) RNA-Seq: 6 mM; higher = less ribozyme self-cleavage, higher mRNA level; settings: with (6R,S)-folinic acid; ligand present: yes
Reported normalized RNA/DNA level with ligand (log10) values for the following variants.
A bare number is all that is needed in reply.

Some variants with recorded normalized RNA/DNA level with ligand (log10):
GCUGUCACCGGUGCUUGGUACGUUAUAUUCAGCCGGUCUGAUGAGUCUACUUGAAGACGAAACAGC [ACUUGA]; 2.03
GCUGUCACCGGUGCUUGGUACGUUAUAUUCAGCCGGUCUGAUGAGUCUGACAGAAGACGAAACAGC [GACAGA]; 2.01
GCUGUCACCGGUGCUUGGUACGUUAUAUUCAGCCGGUCUGAUGAGUCUUGACUGAGACGAAACAGC [UGACUG]; 1.99
GCUGUCACCGGUGCUUGGUACGUUAUAUUCAGCCGGUCUGAUGAGUCUUUGGCUAGACGAAACAGC [UUGGCU]; 2.04

Problem: Specify normalized RNA/DNA level with ligand (log10) for GCUGUCACCGGUGCUUGGUACGUUAUAUUCAGCCGGUCUGAUGAGUCUGUGUGAAGACGAAACAGC [GUGUGA] and stop.
Result: 2.04

Problem: Specify normalized RNA/DNA level with ligand (log10) for GCUGUCACCGGUGCUUGGUACGUUAUAUUCAGCCGGUCUGAUGAGUCUCCUGAGAGACGAAACAGC [CCUGAG] and stop.
Result: 1.97

Problem: Specify normalized RNA/DNA level with ligand (log10) for GCUGUCACCGGUGCUUGGUACGUUAUAUUCAGCCGGUCUGAUGAGUCUCUGAAGAGACGAAACAGC [CUGAAG] and stop.
Result: 2

Problem: Specify normalized RNA/DNA level with ligand (log10) for GCUGUCACCGGUGCUUGGUACGUUAUAUUCAGCCGGUCUGAUGAGUCUCCUCCGAGACGAAACAGC [CCUCCG] and stop.
Result: 2.05

Problem: Specify normalized RNA/DNA level with ligand (log10) for GCUGUCACCGGUGCUUGGUACGUUAUAUUCAGCCGGUCUGAUGAGUCUUGCAAAAGACGAAACAGC [UGCAAA] and stop.
Result: 1.98

Problem: Specify normalized RNA/DNA level with ligand (log10) for GCUGUCACCGGUGCUUGGUACGUUAUAUUCAGCCGGUCUGAUGAGUCUAACGCAAGACGAAACAGC [AACGCA] and stop.
Result: 2

Problem: Specify normalized RNA/DNA level with ligand (log10) for GCUGUCACCGGUGCUUGGUACGUUAUAUUCAGCCGGUCUGAUGAGUCUUGACUAAGACGAAACAGC [UGACUA] and stop.
Result: 2.01

Problem: Specify normalized RNA/DNA level with ligand (log10) for GCUGUCACCGGUGCUUGGUACGUUAUAUUCAGCCGGUCUGAUGAGUCUUAUUGGAGACGAAACAGC [UAUUGG] and stop.
Result: 1.91

Problem: Specify normalized RNA/DNA level with ligand (log10) for GCUGUCACCGGUGCUUGGUACGUUAUAUUCAGCCGGUCUGAUGAGUCUAAUUCGAGACGAAACAGC [AAUUCG] and stop.
Result: 2.03

Problem: Specify normalized RNA/DNA level with ligand (log10) for GCUGUCACCGGUGCUUGGUACGUUAUAUUCAGCCGGUCUGAUGAGUCUCAGCAUAGACGAAACAGC [CAGCAU] and stop.
Result: 2.01

Problem: Specify normalized RNA/DNA level with ligand (log10) for GCUGUCACCGGUGCUUGGUACGUUAUAUUCAGCCGGUCUGAUGAGUCUCACGAUAGACGAAACAGC [CACGAU] and stop.
Result: 2.01

Problem: Specify normalized RNA/DNA level with ligand (log10) for GCUGUCACCGGUGCUUGGUACGUUAUAUUCAGCCGGUCUGAUGAGUCUGGCAUUAGACGAAACAGC [GGCAUU] and stop.
Result: 2.04

Problem: Specify normalized RNA/DNA level with ligand (log10) for GCUGUCACCGGUGCUUGGUACGUUAUAUUCAGCCGGUCUGAUGAGUCUGCGUGGAGACGAAACAGC [GCGUGG] and stop.
Result: 2.06

Problem: Specify normalized RNA/DNA level with ligand (log10) for GCUGUCACCGGUGCUUGGUACGUUAUAUUCAGCCGGUCUGAUGAGUCUCCGUGGAGACGAAACAGC [CCGUGG] and stop.
Result: 2.06

Problem: Specify normalized RNA/DNA level with ligand (log10) for GCUGUCACCGGUGCUUGGUACGUUAUAUUCAGCCGGUCUGAUGAGUCUCUAUGGAGACGAAACAGC [CUAUGG] and stop.
Result: 2.04

Problem: Specify normalized RNA/DNA level with ligand (log10) for GCUGUCACCGGUGCUUGGUACGUUAUAUUCAGCCGGUCUGAUGAGUCUCCGCCGAGACGAAACAGC [CCGCCG] and stop.
Result: 2.08

Problem: Specify normalized RNA/DNA level with ligand (log10) for GCUGUCACCGGUGCUUGGUACGUUAUAUUCAGCCGGUCUGAUGAGUCUCGUGGAAGACGAAACAGC [CGUGGA] and stop.
Result: 2.02

Problem: Specify normalized RNA/DNA level with ligand (log10) for GCUGUCACCGGUGCUUGGUACGUUAUAUUCAGCCGGUCUGAUGAGUCUUGGCCGAGACGAAACAGC [UGGCCG] and stop.
Result: 2.03

Problem: Specify normalized RNA/DNA level with ligand (log10) for GCUGUCACCGGUGCUUGGUACGUUAUAUUCAGCCGGUCUGAUGAGUCUAAUACCAGACGAAACAGC [AAUACC] and stop.
Result: 2.03

Problem: Specify normalized RNA/DNA level with ligand (log10) for GCUGUCACCGGUGCUUGGUACGUUAUAUUCAGCCGGUCUGAUGAGUCUGGCGGCAGACGAAACAGC [GGCGGC] and stop.
Result: 2.01
